Test system: melanoma cells (SK-MEL-5)
Experiment: In vitro potency, CellTiter-Glo growth inhibition, SK-MEL-5
Format: cell-based
Details: Homo sapiens, SK-MEL-5; camptothecin free drugs; 96 h, CellTiter-Glo; read-out: IC50 SK-MEL-5
PARAMETER MEASURED: pIC50
Hey, just a heads up that pIC50 is the negative log base 10 of the concentration in molar.

Value wanted: pIC50 (melanoma cells (SK-MEL-5)) of entry CC[C@@]1(O)C(=O)OCc2c1cc1n(c2=O)Cc2c-1nc1cc3c(cc1c2CNC(=O)[C@@H](N)CCCNC(=N)N)OCO3 7.47

Request: CC[C@@]1(O)C(=O)OCc2c1cc1n(c2=O)Cc2c-1nc1cc3c(cc1c2CNC(=O)[C@@H](N)Cc1ccccc1)OCO3 7.35

One more molecule: CC[C@@]1(O)C(=O)OCc2c1cc1n(c2=O)Cc2c-1nc1cc3c(cc1c2CNC(=O)[C@@H](N)Cc1c[nH]c2ccccc12)OCO3 6.48

What do we get for CC[C@@]1(O)C(=O)OCc2c1cc1n(c2=O)Cc2c-1nc1cc3c(cc1c2CNC(=O)[C@@H](N)Cc1c[nH]cn1)OCO3 ? 6.38
